assay: Quantitative highthroughput screen to assess conditional lethalithy of NOMO1 cells grown in RPMI1640 with dialyzed fetal bovine serum (RPMI+ds) (AID 1963877); details: NOMO1 in RPMI+dialyzed FBS viability, ATP luminescence, 48 h; series mostly up to 45.8 µM; note: nearly all actives have a fitted effect of over 30% in size
Results filed as inconclusive are left out. The source made the active and inactive calls. Calls come from the whole dose curve; as a rule, active = well fitted cell-killing curve with a large enough effect; inconclusive = small, poorly fitted or top-dose-only effect; inactive = flat fitted curve, though single readings scatter.
Return exactly one item of True (active), False (inactive)

compound: O=c1c(O)c(-c2ccc(O)cc2)oc2cc(O)cc(O)c12
assigned.class: False
--
compound: C[C@H]1COC2=C1C(=O)C(=O)c1c2ccc2c1CCCC2(C)C
assigned.class: False
--
compound: C[C@H](NC(=O)[C@@H](O)c1cc(F)cc(F)c1)C(=O)N[C@@H]1C(=O)N(C)c2ccccc2-c2ccccc21
assigned.class: False
--
compound: C[C@H](NC(=O)Cc1cc(F)cc(F)c1)C(=O)N[C@H](C(=O)OC(C)(C)C)c1ccccc1
assigned.class: False
--
compound: CCCCCCCCCCCCCCCC(=O)OC[C@@H](NC(=O)C(Cl)Cl)[C@H](O)c1ccc([N+](=O)[O-])cc1
assigned.class: False
--
compound: O=C(C=Cc1cccc(S(=O)(=O)Nc2ccccc2)c1)NO
assigned.class: True

Could you kindly confirm the outcome this assay logged for CC(=O)Oc1ccccc1C(=O)Nc1ncc([N+](=O)[O-])s1 ? False

Could you kindly confirm the outcome this assay logged for COc1ccc(CC2=NN3C([C@@H](CCc4ccccc4)[C@@H](C)O)=NC(C)C3C(=O)N2)cc1OC (some centres undefined) ? False

Could you kindly confirm the outcome this assay logged for CC(C)C(=O)Oc1ccc(CO)cc1[C@H](CCN(C(C)C)C(C)C)c1ccccc1 ? False

---

experiment: Viability qHTS for spleen associated tyrosine kinase inhibitor (SYKi) drug resistant MV4-11 cells (AID 1963824); details: SYKi-resistant MV4-11 viability, CellTiter-Glo, 72 h; series mostly up to 45 µM; note: nearly all actives have a fitted effect of over 35% in size
Records with an inconclusive call do not appear. The source made the active and inactive calls. Calls come from the whole dose curve; as a rule, active = well fitted cell-killing curve with a large enough effect; inconclusive = small, poorly fitted or top-dose-only effect, or effect the other way; inactive = no such curve, though single readings can be large or run the other way.
Return exactly one item of TRUE = active, FALSE = inactive

Worked cases, answers included:
molecule: NC(=O)C(O[C@@H]1O[C@H](CO[C@@H]2O[C@H](CO)[C@@H](O)[C@H](O)[C@H]2O)[C@@H](O)[C@H](O)[C@H]1O)c1ccccc1 (stereo partly specified)
assigned.class: FALSE
//
molecule: COCCOC(=O)N1CCN(S(=O)(=O)c2cc(F)c(Oc3ccc(Cl)cc3)c(F)c2)C(C(=O)NO)C1 (stereo unspecified)
assigned.class: TRUE
//
molecule: CC(C)CCC(=O)CC1c2ccccc2C(=O)N1c1ccc2ccc(Cl)nc2n1 (stereo unspecified)
assigned.class: FALSE
//
molecule: CC(C)[C@](O)(c1ccc2cc(OC(F)F)c(OC(F)F)cc2c1)c1cn[nH]n1
assigned.class: TRUE
//
molecule: CC(C)CN(C[C@@H](O)[C@H](Cc1ccccc1)NC(=O)O[C@@H]1CO[C@H]2OCC[C@H]21)S(=O)(=O)c1ccc(N)cc1
assigned.class: FALSE
//
molecule: CCN[C@H]1C[C@H](C)S(=O)(=O)c2sc(S(N)(=O)=O)cc21
assigned.class: FALSE
//
molecule: CC1CCC2(C(=O)O)CCC3(C)C(=CCC4C5(C)CCC(OC(=O)/C=C/c6ccccc6)C(C)(C)C5CCC43C)C2C1C (stereo unspecified)
assigned.class: FALSE
//
molecule: COc1cc(NC(=O)Nc2cccc(CNC(=O)O[C@H]3CCOC3)c2)ccc1-c1cnco1
assigned.class: TRUE
//
molecule: CN(Cc1cccs1)c1ncnc2ccc(-c3ccc4c(c3)OCO4)cc12
assigned.class: TRUE
//
molecule: Cc1ccc2c(Nc3ccc(Cl)cc3)nccc2c1Nc1ncccc1-c1ncnc2nc[nH]c12
assigned.class: TRUE

Could you kindly confirm the outcome this assay logged for Cc1cc(C(=O)Nc2cccc(C(=O)Nc3cccc(C(F)(F)F)c3)c2)on1 ? FALSE

Could you kindly confirm the outcome this assay logged for CC1=CC(=O)CC(C)(C)C1/C=C/C(C)O[C@@H]1O[C@H](CO)[C@@H](O)[C@H](O)[C@H]1O[C@@H]1OC[C@](O)(CO)[C@H]1O (stereo partly specified) ? FALSE

Could you kindly confirm the outcome this assay logged for CN(C)CCNC(=O)NC[C@H]1CC[C@@H]2[C@H](O1)c1cc(C(F)(F)F)ccc1N[C@H]2c1ccccc1 ? TRUE
